# system-under-test: human NaV1.8 (Homo sapiens)
# Sequence (Q9Y5Y9 whole entry): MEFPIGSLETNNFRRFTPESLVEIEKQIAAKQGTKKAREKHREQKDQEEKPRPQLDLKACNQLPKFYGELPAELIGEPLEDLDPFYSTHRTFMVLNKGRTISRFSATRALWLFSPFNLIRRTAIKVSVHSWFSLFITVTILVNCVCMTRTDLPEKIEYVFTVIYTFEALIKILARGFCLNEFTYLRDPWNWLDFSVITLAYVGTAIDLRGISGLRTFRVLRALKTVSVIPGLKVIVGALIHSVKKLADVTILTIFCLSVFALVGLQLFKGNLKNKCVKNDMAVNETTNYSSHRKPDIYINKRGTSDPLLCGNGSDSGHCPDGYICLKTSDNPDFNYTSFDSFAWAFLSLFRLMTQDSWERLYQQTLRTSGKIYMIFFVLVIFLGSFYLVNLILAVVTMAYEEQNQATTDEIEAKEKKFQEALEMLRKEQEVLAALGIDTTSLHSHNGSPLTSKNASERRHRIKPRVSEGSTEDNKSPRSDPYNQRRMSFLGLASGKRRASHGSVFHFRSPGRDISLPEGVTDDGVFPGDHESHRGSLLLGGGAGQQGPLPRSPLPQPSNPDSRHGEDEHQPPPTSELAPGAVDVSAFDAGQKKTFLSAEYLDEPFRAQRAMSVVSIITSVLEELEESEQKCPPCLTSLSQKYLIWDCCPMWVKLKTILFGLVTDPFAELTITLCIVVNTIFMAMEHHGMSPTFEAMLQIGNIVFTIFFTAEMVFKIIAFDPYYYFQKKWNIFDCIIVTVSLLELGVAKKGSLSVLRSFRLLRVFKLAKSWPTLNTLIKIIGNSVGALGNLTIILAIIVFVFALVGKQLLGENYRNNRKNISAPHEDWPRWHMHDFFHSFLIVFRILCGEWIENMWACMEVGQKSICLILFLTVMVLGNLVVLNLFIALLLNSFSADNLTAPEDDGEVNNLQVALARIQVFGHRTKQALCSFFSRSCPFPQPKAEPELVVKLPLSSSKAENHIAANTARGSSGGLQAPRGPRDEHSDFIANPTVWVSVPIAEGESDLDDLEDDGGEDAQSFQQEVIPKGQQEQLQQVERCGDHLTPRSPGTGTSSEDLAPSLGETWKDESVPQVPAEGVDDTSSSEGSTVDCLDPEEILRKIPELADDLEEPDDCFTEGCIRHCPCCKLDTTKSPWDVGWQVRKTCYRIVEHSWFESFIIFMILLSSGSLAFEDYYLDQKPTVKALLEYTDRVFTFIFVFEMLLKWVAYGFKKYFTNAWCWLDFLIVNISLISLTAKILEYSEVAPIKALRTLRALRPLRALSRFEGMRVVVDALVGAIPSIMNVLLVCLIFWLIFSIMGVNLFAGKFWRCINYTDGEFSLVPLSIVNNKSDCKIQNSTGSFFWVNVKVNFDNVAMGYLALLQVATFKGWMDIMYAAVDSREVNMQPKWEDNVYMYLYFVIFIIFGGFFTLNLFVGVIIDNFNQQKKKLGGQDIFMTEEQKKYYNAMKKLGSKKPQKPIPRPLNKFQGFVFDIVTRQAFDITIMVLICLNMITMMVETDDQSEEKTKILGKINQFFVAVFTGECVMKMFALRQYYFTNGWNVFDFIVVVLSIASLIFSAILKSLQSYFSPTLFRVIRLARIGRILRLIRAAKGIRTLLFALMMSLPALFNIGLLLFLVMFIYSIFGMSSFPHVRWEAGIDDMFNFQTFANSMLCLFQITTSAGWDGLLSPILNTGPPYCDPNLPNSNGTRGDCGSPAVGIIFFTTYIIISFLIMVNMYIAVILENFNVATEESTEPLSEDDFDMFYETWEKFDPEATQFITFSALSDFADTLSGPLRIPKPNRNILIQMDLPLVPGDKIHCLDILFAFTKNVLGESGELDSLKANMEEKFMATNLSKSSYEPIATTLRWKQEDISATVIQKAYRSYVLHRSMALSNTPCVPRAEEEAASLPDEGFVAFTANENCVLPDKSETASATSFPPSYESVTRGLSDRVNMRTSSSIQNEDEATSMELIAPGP
# Sequence (Q9NY72 23-215 partner): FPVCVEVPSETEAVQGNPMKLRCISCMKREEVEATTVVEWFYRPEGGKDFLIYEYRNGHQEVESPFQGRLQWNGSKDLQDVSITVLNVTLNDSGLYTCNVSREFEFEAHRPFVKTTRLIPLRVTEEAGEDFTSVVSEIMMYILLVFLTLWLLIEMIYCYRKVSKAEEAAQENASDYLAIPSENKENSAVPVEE
# experimental-protocol: Electrophysiology: voltage-clamp recordings (whole-cell automated patch clamp, Qube384)
# study-conditions: HEK-NaV1.8 with b3 recombinant cell line, ambient room temperature, read-out: Potency category (human NaV1.8 IC50)
pIC50: −log10 of the molar value.
value-kind: pIC50

Worked cases, answers included:
O=C(Nc1ccnc(O)c1)c1c2cccc(F)c2nn1CC1CCCCC1 [SC-20] : 6.00 to 7.00
CS(=O)(=O)n1cc(NC(=O)c2c3ccccc3nn2CC2CCCCC2)cn1 [SC-36] : 6.00 to 7.00
CS(=O)(=O)c1cccc(NC(=O)c2c3ccccc3nn2CC2CCCC2)c1 [SC-67] : 6.00 to 7.00
CS(=O)(=O)c1cccc(NC(=O)c2c3ccccc3nn2CC2CCOC2)c1 (centres unmarked) [SC-56] : 5.00 to 6.00
Cc1cccc2c(C(=O)Nc3cc[nH]c(=O)c3)n(CC3CCCCC3)nc12 [SC-43] : ≥ 7.00

Fill in pIC50 for each of the 4 compounds listed.
1. O=C(Nc1ccnc(O)c1)c1c2ccccc2nn1CC1CCCCO1 (centres unmarked) [SC-53]
2. O=C(Nc1ccnc(O)c1)c1c2c(F)cccc2nn1CC1CCCCC1 [SC-49]
3. Cc1ccc(Cl)c2c(C(=O)Nc3cccc(S(N)(=O)=O)c3)n(CC3CCCCO3)nc12 (single isomer, unassigned) [SC-84a]
4. Cc1ccc(Cl)c2c(C(=O)Nc3ccnc(C(N)=O)c3)n(CC3CCC(F)(F)C3)nc12 (single isomer, unassigned) [SC-82b]

1. 5.00 to 6.00
2. 6.00 to 7.00
3. ≥ 7.00
4. ≥ 7.00

Please state, for each entry, its recorded pIC50.
1. NC(=O)c1cc(NC(=O)c2c3ccccc3nn2CC2CCC(F)(F)CC2)ccc1F [SC-25]
2. C[C@H](C1CCCCC1)n1nc2ccccc2c1C(=O)Nc1cccc(S(C)(=O)=O)c1 (single isomer, unassigned) [SC-74b]
3. CS(=O)(=O)c1cccc(NC(=O)c2c3ccccc3nn2CC2CCCCC2)c1 [SC-37]
4. CS(=O)(=O)c1cccc(NC(=O)c2c3ccc(F)cc3nn2CC2CCOCC2)c1 [SC-60]

["6.00 to 7.00", "5.00 to 6.00", "≥ 7.00", "6.00 to 7.00"]

Please give pIC50 for each item listed below.
1. O=C(Nc1ccnc(O)c1)c1c2ccccc2nn1CC1CCCC1 [SC-73]
2. O=C(Nc1ccnc(O)c1)c1c2ccccc2nn1CC1CCCCCC1 [SC-13]
3. O=C(Nc1ccnc(O)c1)c1c2ccc(F)cc2nn1CC1CCCCO1 (centres unmarked) [SC-71]
4. CS(=O)(=O)c1cccc(NC(=O)c2c3ccccc3nn2CC2CCC(F)(F)CC2)c1 [SC-22]

6.00 to 7.00
6.00 to 7.00
5.00 to 6.00
6.00 to 7.00

Please go through the list and note pIC50 for each compound.
1. CS(=O)(=O)c1cccc(NC(=O)c2c3ccc(F)cc3nn2CC2CC(F)(F)C2)c1 [SC-62]
2. Cn1ccc(NC(=O)c2c3ccccc3nn2CC2CCCCC2)cc1=O [SC-39]
3. CS(=O)(=O)c1cccc(NC(=O)c2c3ccc(F)cc3nn2CCC2CCCC2)c1 [SC-61]
4. NC(=O)c1cccc(NC(=O)c2c3ccccc3nn2CC2CCCCC2)c1 [SC-17]

1. 6.00 to 7.00
2. 5.00 to 6.00
3. 6.00 to 7.00
4. ≥ 7.00

Give me pIC50 for each of these compounds, listed below.
1. Cc1cccc2c(C(=O)Nc3cccc(S(C)(=O)=O)c3)n(CC3CCCCC3)nc12 [SC-45]
2. NS(=O)(=O)c1cccc(NC(=O)c2c3cccc(F)c3nn2CC2CCCC(F)(F)C2)c1 (centres unmarked) [SC-81]
3. CC1(C)CC(Cn2nc3cc(F)ccc3c2C(=O)Nc2cccc(S(C)(=O)=O)c2)C1 [SC-68]
4. NS(=O)(=O)c1cccc(NC(=O)c2c3ccc(F)cc3nn2CC2CCC(F)(F)CC2)c1 [SC-38]
5. CS(=O)(=O)c1cccc(NC(=O)c2c3cccc(C(F)(F)F)c3nn2CC2CCCCC2)c1 [SC-44]

≥ 7.00
≥ 7.00
≥ 7.00
≥ 7.00
≥ 7.00

Look at each compound and report its pIC50.
1. O=C(Nc1ccnc(O)c1)c1c2ccccc2nn1CC1CCOC1 (centres unmarked) [SC-50]
2. O=C(Nc1ccnc(O)c1)c1c2ccccc2nn1CC1CCC(F)(F)CC1 [SC-24]

5.00 to 6.00
5.00 to 6.00

Batch: pIC50 for all items listed.
1. O=C(Nc1ccnc(O)c1)c1c2ccc(F)cc2nn1CC1CCCCC1 [SC-05]
2. Cc1cccc2c(C(=O)Nc3cccc(S(N)(=O)=O)c3)n(CC3CCC(F)(F)C3)nc12 (centres unmarked) [SC-80]
3. C[C@@H](C1CCCCC1)n1nc2ccccc2c1C(=O)Nc1cccc(S(C)(=O)=O)c1 (single isomer, unassigned) [SC-74a]
4. Cc1cccc2nn(CC3CCCCC3)c(C(=O)Nc3cccc(S(C)(=O)=O)c3)c12 [SC-83]

["≥ 7.00", "≥ 7.00", "6.00 to 7.00", "≥ 7.00"]
